- target or system: hGLP-1R (Homo sapiens, UniProt P43220)
- Sequence (P43220 24-463): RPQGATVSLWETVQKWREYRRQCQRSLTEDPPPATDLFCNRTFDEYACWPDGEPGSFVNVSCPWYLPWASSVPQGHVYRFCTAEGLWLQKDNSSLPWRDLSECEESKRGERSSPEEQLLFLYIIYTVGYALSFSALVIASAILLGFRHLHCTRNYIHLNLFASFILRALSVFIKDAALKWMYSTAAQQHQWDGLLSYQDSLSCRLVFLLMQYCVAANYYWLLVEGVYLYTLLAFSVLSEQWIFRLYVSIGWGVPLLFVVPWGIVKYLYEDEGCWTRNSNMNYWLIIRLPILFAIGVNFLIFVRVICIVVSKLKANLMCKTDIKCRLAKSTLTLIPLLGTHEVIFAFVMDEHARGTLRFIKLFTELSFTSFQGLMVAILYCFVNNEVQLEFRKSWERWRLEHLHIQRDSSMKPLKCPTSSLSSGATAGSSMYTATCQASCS
- test details: cell-based or functional assay
value type: cAMP Rel EC50 (receptor-expressing HEK-293 cells, 1% HSA)
Please append the unit to your numeric answer.

>>> measured_result("YXQGTXTSDXXIXLDXKAQXXFIEXLIEGGPSSGEPPPEEG (synthetic construct; SITE 2: note = 2-Aminoisobutyric Acid; SITE 6: note = alpha-methyl-2-fluoro-L-phenylalanine; SITE 10: note = 3-(4-Pyridyl)-L-alanine; SITE 11: note = alpha-methyl-L-serine; SITE 13: note = alpha-methyl-leucine; SITE 16: note = L-ornithine; SITE 17: note = Lysine is chemically mo) [Example 462]")
"12.9 nM"
>>> measured_result("YXQGTXTSDXXIXLDXKAQXNFIEXLIEGGPSSGEPEPSEG (synthetic construct; SITE 2: note = 2-Aminoisobutyric Acid; SITE 6: note = alpha-methyl-2-fluoro-L-phenylalanine; SITE 10: note = 3-(4-Pyridyl)-L-alanine; SITE 11: note = alpha-methyl-L-serine; SITE 13: note = alpha-methyl-leucine; SITE 16: note = L-ornithine; SITE 17: note = Lysine is chemically mo) [Example 473]")
"11.4 nM"

Now look at this entry.
Lookup: Requested field: cAMP Rel EC50 (receptor-expressing HEK-293 cells, 1% HSA). Item: YXQGTXTSDXXIXLDXKAQXNFIEYLIEGGPSSGEPPPE (synthetic construct; SITE 2: note = 2-Aminoisobutyric Acid; SITE 6: note = alpha-methyl-2-fluoro-L-phenylalanine; SITE 10: note = 3-(4-Pyridyl)-L-alanine; SITE 11: note = alpha-methyl-L-serine; SITE 13: note = alpha-methyl-leucine; SITE 16: note = L-ornithine; SITE 17: note = Lysine is chemically mo) [Example 449]
Found: 18.9 nM
